# Study system: Phosphatidylinositol 4,5-bisphosphate 3-kinase catalytic subunit delta isoform (Homo sapiens, UniProt O00329)
# Sequence (O00329 whole entry, canonical isoform): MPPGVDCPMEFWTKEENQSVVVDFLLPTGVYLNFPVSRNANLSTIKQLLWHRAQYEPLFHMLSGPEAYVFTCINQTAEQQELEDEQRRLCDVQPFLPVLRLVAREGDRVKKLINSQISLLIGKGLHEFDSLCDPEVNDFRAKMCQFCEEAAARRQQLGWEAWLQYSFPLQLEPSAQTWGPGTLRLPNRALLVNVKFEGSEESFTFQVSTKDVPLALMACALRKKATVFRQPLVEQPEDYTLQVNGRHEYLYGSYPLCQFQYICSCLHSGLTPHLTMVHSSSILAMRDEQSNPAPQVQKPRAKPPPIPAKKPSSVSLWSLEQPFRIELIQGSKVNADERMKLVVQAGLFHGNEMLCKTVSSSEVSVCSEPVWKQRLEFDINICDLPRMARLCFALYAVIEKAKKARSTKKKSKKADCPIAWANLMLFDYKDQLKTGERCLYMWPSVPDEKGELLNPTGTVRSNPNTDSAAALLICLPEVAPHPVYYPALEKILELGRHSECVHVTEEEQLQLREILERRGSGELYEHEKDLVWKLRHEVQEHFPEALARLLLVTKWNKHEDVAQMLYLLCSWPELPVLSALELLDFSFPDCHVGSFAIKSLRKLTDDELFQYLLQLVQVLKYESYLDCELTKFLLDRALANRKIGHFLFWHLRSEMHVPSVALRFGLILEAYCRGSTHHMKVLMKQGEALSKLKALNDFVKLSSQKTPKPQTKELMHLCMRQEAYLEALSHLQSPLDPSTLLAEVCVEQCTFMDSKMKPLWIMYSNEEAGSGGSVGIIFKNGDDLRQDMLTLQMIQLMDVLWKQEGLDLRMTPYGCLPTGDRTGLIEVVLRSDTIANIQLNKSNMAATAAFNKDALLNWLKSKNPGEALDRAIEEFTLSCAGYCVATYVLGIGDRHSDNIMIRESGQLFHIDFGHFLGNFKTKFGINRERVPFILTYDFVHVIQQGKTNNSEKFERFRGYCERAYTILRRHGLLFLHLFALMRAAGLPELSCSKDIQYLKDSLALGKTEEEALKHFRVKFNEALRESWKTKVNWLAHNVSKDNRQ
# Test method notes: Inhibition of PI3Kdelta (unknown origin) using PIP2 as substrate measured after 30 mins by HTRF assay
pIC50: −log10 of the molar value.
Attribute measured: pIC50

Molecule: N#Cc1c(N)ncnc1N1CC[C@H]1c1nc2cccc(C#CCCCC(=O)N3CCCC3)c2c(=O)n1-c1ccccc1
Value comparator: =
Measurement: 6.36
--
Molecule: N#Cc1c(N)ncnc1N1CCC[C@H]1c1nc2cccc(C#Cc3ccccn3)c2c(=O)n1-c1ccccc1
Value comparator: <
Measurement: 6.52
--
Molecule: N#Cc1c(N)ncnc1N1CCC[C@H]1c1nc2cccc(C#CCN3CCC(C4CC(F)C4)CC3)c2c(=O)n1-c1ccccc1 (stereo partly specified)
Value comparator: =
Measurement: 7.11
--
Molecule: CC(F)CN1CCN(CC#Cc2cccc3nc([C@@H]4CCCN4c4ncnc(N)c4C#N)n(-c4ccccc4)c(=O)c23)CC1 (stereo partly specified)
Value comparator: =
Measurement: 7.10
--
Molecule: CC(C)N1CCN(Cc2cnc(C#Cc3cccc4nc([C@@H]5CCCN5c5ncnc(N)c5C#N)n(-c5ccccc5)c(=O)c34)s2)CC1
Value comparator: <
Measurement: 6.52
--
Molecule: CC[C@H](Nc1ncnc2[nH]cnc12)c1nc2cccc(C#CCCCC(=O)N3CCOCC3)c2c(=O)n1-c1ccccc1
Value comparator: =
Measurement: 6.96

// data source = ChEMBL document CHEMBL4041516
